Test system: Proteus vulg. 1017
test: Agar dilution test, minimum inhibitory concentration
Assay type: cell-based
condition.context: test strain Proteus vulg. 1017; Isosensitest-Agar (Oxoid), inoculum ca. 10^4 germs per inoculation point; read-out: Minimale Hemmkonzentrationen
Consider the following compounds; for each one, report its MIC.
Write the number in µg/mL without appending the unit.

INPUT: Specify MIC for CN1CCN(c2c(F)c(N)c3c(=O)c(C(=O)O)cn(C4CC4)c3c2F)CC1 and stop.
OUTPUT: 0.06

INPUT: Please look at this compound and report its MIC: Nc1c(F)c(N2CCOCC2)c(F)c2c1c(=O)c(C(=O)O)cn2C1CC1
OUTPUT: 0.03

INPUT: Identify measured MIC corresponding to Nc1c(F)c(N2CCNC(c3ccc(F)cc3)C2)c(F)c2c1c(=O)c(C(=O)O)cn2C1CC1 (stereo not shown)
OUTPUT: 0.06

INPUT: Quickly give me recorded MIC for Nc1c(F)c(N2CCCC2)c(F)c2c1c(=O)c(C(=O)O)cn2C1CC1
OUTPUT: 0.06
